# System: Staphylococcus aureus
# experimental_protocol: Antibacterial activity against Staphylococcus aureus ATCC 25923 at 100 ug/ml after 24 hrs by MTT based microbroth dilution assay
# Format: functional, organism-based
Activity calls are given as the source filed them. The rule behind the calls is not given here.
experimental_endpoint: Activity

Known Activity results, listed for orientation:
compound	target_or_system	meas_value
C/C1=C\[C@@H](O)C[C@H](C)/C=C/[C@H](C(C)(C)O)CC1	Staphylococcus aureus	inactive
CC1(C)C[C@H]2[C@H]1CC[C@]1(C)CCC[C@@]2(O)C1	Staphylococcus aureus	inactive
CO/C1=C\C(C)=C\[C@@H](C)[C@@H](O)[C@@H](C)C/C(C)=C/C=C/[C@H](OC)[C@@H]([C@@H](C)[C@@H](O)[C@H](C)[C@@]2(OC)C[C@@H](O)[C@H](C)[C@@H](C(C)C)O2)OC1=O	Staphylococcus aureus	inactive
CC1=C[C@@H]2[C@@H](C(C)C)CC[C@H](C)[C@]2(O)CC1	Staphylococcus aureus	inactive
CO/C1=C\C(C)=C\[C@@H](C)[C@@H](O)[C@@H](C)C/C(C)=C/C=C/[C@H](OC)[C@@H]([C@@H](C)[C@@H](O)[C@H](C)[C@@]2(O)C[C@@H](O)[C@H](C)[C@@H](C(C)C)O2)OC1=O	Staphylococcus aureus	inactive
CO/C1=C\C(C)=C\[C@@H](C)[C@@H](O)[C@@H](C)C/C(C)=C/C=C/[C@H](OC)[C@@H]([C@@H](C)[C@@H](O)[C@H](C)[C@@]2(OC)C[C@@H](OC(=O)/C=C/C(N)=O)[C@H](C)[C@@H](C(C)C)O2)OC1=O	Staphylococcus aureus	inactive
CO/C1=C\C(C)=C\[C@@H](C)[C@@H](O)[C@@H](C)C/C(C)=C/C=C/[C@H](OC)[C@@H]([C@@H](C)[C@@H](O)[C@H](C)[C@@]2(O)C[C@@H](OC)[C@H](C)[C@@H](C(C)C)O2)OC1=O	Staphylococcus aureus	inactive
CO/C1=C\C(C)=C\[C@@H](C)[C@@H](O)[C@@H](C)C/C(C)=C/C=C/[C@H](OC)[C@@H]([C@@H](C)[C@@H](O)[C@H](C)[C@@]2(OC)CC[C@H](C)[C@@H](C(C)C)O2)OC1=O	Staphylococcus aureus	inactive
CC1(C)C[C@H]2[C@H]1CC[C@@]1(C)C[C@]2(O)CC[C@@H]1O	Staphylococcus aureus	inactive
C[C@H]1[C@@H](O)CC[C@@]2(C)CCCC[C@]12O	Staphylococcus aureus	inactive

Consider the additional compound presented here.
Noted for CO/C1=C/C(C)=C/[C@@H](C)[C@@H](O)[C@@H](C)C/C(C)=C/C=C/[C@H](OC)C([C@@H](C)[C@@H](O)[C@H](C)C(=O)/C=C/[C@H](C)[C@H](O)C(C)C)OC1=O (stereo partly specified) : its Activity reads inactive
